# tested_target: T1, SARS-CoV-2 S1 (40591-V08H3, Sino Biological) (SARS-CoV-2, UniProt P0DTC2 16-685)
# T1 construct: domain: S1
# test_protocol: ELISA on coated protein, anti-human IgG-HRP; AUC of the OD
Property: Binding AUC; scope: individual binders

// solved cases for Binding AUC follow
1242D11 (antibody, V domains shown) VH: QVQLVQSGGGLVQPGGSLRLSCAVSGFTFSSYWMSWVRQAPGKGLEWVANIKQDGSEKYYVDSVKGRFTISRDNAKNSLFLQMNSLRAEDTAVYYCAREAVGYYYDSRGYHYSWYFDLWGRGTLVTVSS VL: EIVLTQSPGTLSLSPGERATLSCRASQSVSSSYLVWYQQKPGQAPRLLIFGASSRATGIPDRFSGSGSGTDFTLTISSLEPEDFAVYYCQHYGSSPPMYTFGQGTKLEIK ... 2.9
1250D2 (antibody, V domains shown, Recombinant human IgG1) VH: QVQLVQSGAEVKKPGASMKVSCKASGFTFSDYYMHWVRQAPRQGLEWMGLINPSGSGTAYAQNFQGRVTLTRDTSTSTLYMEMGSLTSDDTAVYYCARMDSSGSYDHWGQGTLVTVSS VL: EIVLTQSPGTLSLSPGDRATLSCRASQTIRISYLAWYQQKPGQAPRLLVYGPSIRATGIPDRFSASGSGTDFTLTISRLEPEDFAVYYCQHYGSSPPRYTFGQGTKLEIK ... 1.7

Ask | Please list Binding AUC recorded for the binder 1250E10 (antibody, V domains shown, Recombinant human IgG1) VH: EVQLVQSGAEVKKPGASVKFSCKASGFRVDGSYMHWVRQAPRGGLEWMGLINPSGSGTAYAQIFQGRVTLTRDTSTSTLYMELGSLGSEDTAMYYCARMDRSGSYDLWGQGTLVIVSS VL: DIVLTQSPGNLSLSPGERATLSCRASESIRSAYIAWYQQKPGQAPRLLMRGASVRAAGIPDRFSGSGSGTDYALTISRLEPEDFAVYYCQHFASSPPRYTFGQGTKLEIK
Reply | 2.9

Ask | Please list Binding AUC recorded for the binder 1246H7 (antibody, V domains shown) VH: QVQLQQSGPGLMKPSETLSLTCTVSGGSISSSSYYWGWIRQPPGKGLEWIGSIYYSGATYYNPSLKSRVTISVDTSKNQLSLKLSSVTAADTAVYYCVNRYYDYVWGSWGVDCWGQGTLVTVSS VL: QAGLTQPRSVSGSPGQSVTISCTGTSSDVGGYNYVSWYQQHPGKAPKLMIYDVNKRPSGVPDRFSGSKSGNTASLTISGLQAEDEADYFCCSYAGSYTYWVFGGGTKLTVL
Reply | 1.7

src = patent US20240270828A1
